Target: CFTR (Homo sapiens, UniProt P13569)
Sequence (P13569 with tags, fused parts or gaps DEL508-508): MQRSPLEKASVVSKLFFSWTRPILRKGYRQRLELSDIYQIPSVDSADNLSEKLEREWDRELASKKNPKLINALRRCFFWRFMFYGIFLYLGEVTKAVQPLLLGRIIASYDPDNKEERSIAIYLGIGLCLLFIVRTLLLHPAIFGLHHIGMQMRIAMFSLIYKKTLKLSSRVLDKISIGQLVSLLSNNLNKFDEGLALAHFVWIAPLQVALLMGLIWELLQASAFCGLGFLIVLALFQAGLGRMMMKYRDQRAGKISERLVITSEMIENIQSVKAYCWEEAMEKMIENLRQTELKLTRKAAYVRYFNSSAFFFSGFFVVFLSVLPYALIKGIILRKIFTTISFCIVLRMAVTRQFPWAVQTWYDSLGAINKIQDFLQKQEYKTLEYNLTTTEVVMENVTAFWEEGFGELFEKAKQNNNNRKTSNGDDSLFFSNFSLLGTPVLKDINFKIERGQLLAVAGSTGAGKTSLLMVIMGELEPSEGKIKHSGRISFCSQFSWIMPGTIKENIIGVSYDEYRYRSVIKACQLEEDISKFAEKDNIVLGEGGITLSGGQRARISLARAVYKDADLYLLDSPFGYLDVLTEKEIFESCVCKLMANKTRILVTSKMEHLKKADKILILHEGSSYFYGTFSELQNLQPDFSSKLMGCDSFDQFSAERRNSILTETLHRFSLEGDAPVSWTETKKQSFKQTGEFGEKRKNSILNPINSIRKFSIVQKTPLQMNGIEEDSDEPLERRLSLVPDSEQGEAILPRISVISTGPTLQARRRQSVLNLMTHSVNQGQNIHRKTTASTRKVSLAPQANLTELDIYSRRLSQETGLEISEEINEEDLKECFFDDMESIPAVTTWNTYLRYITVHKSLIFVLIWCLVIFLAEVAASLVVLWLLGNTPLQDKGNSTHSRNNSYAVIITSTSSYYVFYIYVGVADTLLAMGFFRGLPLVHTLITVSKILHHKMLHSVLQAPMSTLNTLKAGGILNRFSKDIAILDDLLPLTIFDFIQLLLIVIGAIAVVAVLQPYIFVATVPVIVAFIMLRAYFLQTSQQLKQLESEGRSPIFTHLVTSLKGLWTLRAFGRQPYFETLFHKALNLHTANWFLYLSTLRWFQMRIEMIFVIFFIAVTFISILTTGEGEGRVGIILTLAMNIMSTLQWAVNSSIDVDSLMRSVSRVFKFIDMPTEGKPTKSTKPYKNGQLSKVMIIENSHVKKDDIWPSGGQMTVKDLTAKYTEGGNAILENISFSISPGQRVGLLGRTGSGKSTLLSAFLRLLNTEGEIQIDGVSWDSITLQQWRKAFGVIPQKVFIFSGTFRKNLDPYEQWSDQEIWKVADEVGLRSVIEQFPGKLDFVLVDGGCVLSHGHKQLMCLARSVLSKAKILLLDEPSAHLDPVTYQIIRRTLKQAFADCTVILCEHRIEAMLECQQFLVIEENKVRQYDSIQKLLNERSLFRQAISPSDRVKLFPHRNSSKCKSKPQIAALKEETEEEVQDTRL
Test: Membrane Potential Dye, Enteroid Assay B
Format: cell-based
Details: read-out: Ent. B EC50
pEC50: −log10 of the molar value.
readoutKind: pEC50

So for Cc1cccc(C)c1-c1nc2nc(c1C)OC[C@@H](CC(C)(C)O)N(C1CC3(CC3)C1)C(=O)c1cccc(c1)S(=O)(=O)N2 [Compound 108] , the logged pEC50 turned out to be 5.52 to 6.00

So for CCc1c2nc(nc1-c1c(C)cccc1C)NS(=O)(=O)c1cccc(c1)C(=O)N(C1CC3(CC3)C1)[C@H](CC(C)C)CO2 [Compound 160] , the logged pEC50 turned out to be > 6.00

So for Cc1cccc(C)c1-c1nc2nc(c1-c1cnn(C(C)C)c1)O[C@H](C)CNC(=O)c1cccc(c1)S(=O)(=O)N2 [Compound 147] , the logged pEC50 turned out to be 4.52 to 5.52

So for Cc1cccc(C)c1-c1nc2nc(c1C)OCCCNC(=O)c1cccc(c1)S(=O)(=O)N2 [Compound 36] , the logged pEC50 turned out to be 4.52 to 5.52

So for Cc1cccc(C)c1-c1nc2nc(c1C)OC[C@@H](CC1(C(F)(F)F)CC1)N(C1CC3(CC(NC(=O)OC(C)C)C3)C1)C(=O)c1cccc(c1)S(=O)(=O)N2 (stereo in doubt) [Compound 89] , the logged pEC50 turned out to be > 6.00

So for COc1ccccc1-c1c2nc(nc1-c1c(C)cccc1C)NS(=O)(=O)c1cccc(c1)C(=O)N[C@H](C)CO2 [Compound 123] , the logged pEC50 turned out to be 5.52 to 6.00
